Entry source: the supplement of paper PMC9112550

- System: Escherichia coli TOP10
- test-details: shrunken log2 fold change of peptide-encoding DNA abundance (4.5 h post-induction vs induction); higher = less antimicrobial activity (less host growth inhibition)
- protocol-conditions: time post-induction: 4.5 h; library: site-saturation at positions 5, 18, 19, 20
y means recorded shrunken log2 fold change is 0.3 or above; n means it is below 0.3.

| sequence | classification |
| --- | --- |
| RRIRSRPPRLPRPRPRPYAKPRP | n |

input: shrunken log2 fold change >= 0.3 for `RRIRIRPPRLPRPRPRPAHPPRP` ?
output: n

input: shrunken log2 fold change >= 0.3 for `RRIRCRPPRLPRPRPRPSAQPRP` ?
output: y

input: shrunken log2 fold change >= 0.3 for `RRIRNRPPRLPRPRPRPTGMPRP` ?
output: n

###

- System: Escherichia coli TOP10
- test-details: shrunken log2 fold change of peptide-encoding DNA abundance (4.5 h post-induction vs induction); higher = less antimicrobial activity (less host growth inhibition)
- protocol-conditions: time post-induction: 4.5 h; library: site-saturation at positions 5, 18, 19, 20
endpoint-name: shrunken log2 fold change
Give bare numbers.

| sequence | shrunken log2 fold change |
| --- | --- |
| RRIRPRPPRLPRPRPRPVLCPRP | 0.282 |

For every record below, what is its shrunken log2 fold change?
1. RRIRCRPPRLPRPRPRPYVAPRP
2. RRIRTRPPRLPRPRPRPWMPPRP
3. RRIRARPPRLPRPRPRPNLRPRP

output:
-0.858
-0.247
0.022

For every record below, what is its shrunken log2 fold change?
1. RRIRERPPRLPRPRPRPTLTPRP
2. RRIRMRPPRLPRPRPRPAWCPRP
3. RRIRCRPPRLPRPRPRPYSHPRP
4. RRIRGRPPRLPRPRPRPKMEPRP
5. RRIRWRPPRLPRPRPRPRIWPRP

output:
1. -0.0194
2. 3.93
3. -0.595
4. 0.582
5. -0.0288

For every record below, what is its shrunken log2 fold change?
1. RRIRARPPRLPRPRPRPNKAPRP
2. RRIRLRPPRLPRPRPRPHGGPRP
3. RRIRGRPPRLPRPRPRPMVYPRP
4. RRIRLRPPRLPRPRPRPVAQPRP

output:
0.00219
-0.234
0.438
0.391

For every record below, what is its shrunken log2 fold change?
1. RRIRMRPPRLPRPRPRPMRVPRP
2. RRIRARPPRLPRPRPRPRCSPRP

output:
[0.035, 0.205]

###

Provide the recorded shrunken log2 fold change for the entries that follow.
- Tested on: Escherichia coli TOP10
- test-details: shrunken log2 fold change of peptide-encoding DNA abundance (4.5 h post-induction vs induction); higher = less antimicrobial activity (less host growth inhibition)
- protocol-conditions: time post-induction: 4.5 h; library: site-saturation at positions 5, 18, 19, 20
Answers are plain numbers.

Completed entries (count: 3):
| sequence | endpoint-name | assay-value |
| --- | --- | --- |
| RRIRTRPPRLPRPRPRPKCIPRP | shrunken log2 fold change | -0.292 |
| RRIRNRPPRLPRPRPRPFRMPRP | shrunken log2 fold change | 0.00572 |
| RRIRARPPRLPRPRPRPPHYPRP | shrunken log2 fold change | 0.857 |

--- query ---
input: Find the measured shrunken log2 fold change: item `RRIRVRPPRLPRPRPRPVWGPRP` , target or system Escherichia coli TOP10.
output: 1.8

###

- Test system: Escherichia coli TOP10
- test-details: shrunken log2 fold change of peptide-encoding DNA abundance (4.5 h post-induction vs induction); higher = less antimicrobial activity (less host growth inhibition)
- protocol-conditions: time post-induction: 4.5 h; library: site-saturation at positions 5, 18, 19, 20
Provide the recorded shrunken log2 fold change for the entries that follow.
Numbers only.

| sequence | shrunken log2 fold change |
| --- | --- |
| RRIRIRPPRLPRPRPRPYACPRP | -0.0484 |
| RRIRCRPPRLPRPRPRPKIFPRP | -0.0936 |

For every record below, what is its shrunken log2 fold change?
1. RRIRMRPPRLPRPRPRPKTFPRP
2. RRIRQRPPRLPRPRPRPWMGPRP
3. RRIRRRPPRLPRPRPRPDDKPRP
4. RRIRTRPPRLPRPRPRPQLVPRP
5. RRIRQRPPRLPRPRPRPMFYPRP

output:
1. 0.0371
2. 0.063
3. 0.0703
4. 0.0727
5. -0.503

For every record below, what is its shrunken log2 fold change?
1. RRIRRRPPRLPRPRPRPKNSPRP
2. RRIRRRPPRLPRPRPRPAISPRP
3. RRIRERPPRLPRPRPRPKWWPRP
4. RRIRLRPPRLPRPRPRPFSWPRP
5. RRIRHRPPRLPRPRPRPLHHPRP
6. RRIRVRPPRLPRPRPRPFMNPRP
7. RRIRDRPPRLPRPRPRPNPGPRP

output:
[-0.0537, -0.0296, 0.397, -0.213, -0.554, -0.836, -0.117]

input: Recorded shrunken log2 fold change for `RRIRIRPPRLPRPRPRPSDCPRP` , please?
output: -0.497

###

- System: Escherichia coli TOP10
- test-details: shrunken log2 fold change of peptide-encoding DNA abundance (4.5 h post-induction vs induction); higher = less antimicrobial activity (less host growth inhibition)
- protocol-conditions: time post-induction: 4.5 h; library: site-saturation at positions 5, 18, 19, 20
Provide the recorded shrunken log2 fold change for the entries that follow.
Give bare numbers.

Completed entries (count: 6):
| sequence | target-of-assay | shrunken log2 fold change |
| --- | --- | --- |
| RRIRQRPPRLPRPRPRPFAYPRP | Escherichia coli TOP10 | -0.0651 |
| RRIRDRPPRLPRPRPRPRSWPRP | Escherichia coli TOP10 | 0.131 |
| RRIRWRPPRLPRPRPRPKNHPRP | Escherichia coli TOP10 | -0.248 |
| RRIRRRPPRLPRPRPRPGIWPRP | Escherichia coli TOP10 | 0.455 |
| RRIRRRPPRLPRPRPRPDGQPRP | Escherichia coli TOP10 | 0.298 |
| RRIRDRPPRLPRPRPRPGPCPRP | Escherichia coli TOP10 | 0.244 |

For every record below, what is its shrunken log2 fold change?
1. RRIRERPPRLPRPRPRPMKNPRP
2. RRIRNRPPRLPRPRPRPKHTPRP
3. RRIRSRPPRLPRPRPRPKCKPRP
4. RRIRSRPPRLPRPRPRPKYTPRP
5. RRIRSRPPRLPRPRPRPEGRPRP
6. RRIRFRPPRLPRPRPRPNYIPRP
7. RRIRCRPPRLPRPRPRPCTMPRP
8. RRIRNRPPRLPRPRPRPDERPRP

output:
1. -0.22
2. -0.0718
3. -0.0132
4. -0.518
5. -0.0898
6. -0.587
7. -0.725
8. 0.0408

input: Recorded shrunken log2 fold change for `RRIRMRPPRLPRPRPRPIPWPRP` , please?
output: -0.033

###

- Tested on: Escherichia coli TOP10;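 note: peptides expressed intracellularly from a pBAD plasmid library in pooled LB shake-flask culture, induced with 0.3% L-arabinose, DNA abundance read by NGS, three biological replicates, DESeq2 with apeglm shrinkage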
- test-details: shrunken log2 fold change of peptide-encoding DNA abundance (4.5 h post-induction vs induction); higher = less antimicrobial activity (less host growth inhibition)
- protocol-conditions: time post-induction: 4.5 h; library: site-saturation at positions 5, 18, 19, 20
endpoint-name: shrunken log2 fold change

| sequence | target-of-assay | shrunken log2 fold change |
| --- | --- | --- |
| RRIRTRPPRLPRPRPRPVWRPRP | Escherichia coli TOP10 | 0.302 |
| RRIRSRPPRLPRPRPRPTKFPRP | Escherichia coli TOP10 | 0.0549 |
| RRIRKRPPRLPRPRPRPDEQPRP | Escherichia coli TOP10 | 2.64 |
| RRIRPRPPRLPRPRPRPQYMPRP | Escherichia coli TOP10 | -0.506 |
| RRIRYRPPRLPRPRPRPLIHPRP | Escherichia coli TOP10 | -1.38 |
| RRIRGRPPRLPRPRPRPSAEPRP | Escherichia coli TOP10 | 2.33 |
| RRIRCRPPRLPRPRPRPMAKPRP | Escherichia coli TOP10 | -0.0415 |
| RRIRMRPPRLPRPRPRPPEKPRP | Escherichia coli TOP10 | 2.49 |
| RRIRVRPPRLPRPRPRPIILPRP | Escherichia coli TOP10 | -0.483 |
| RRIRMRPPRLPRPRPRPHANPRP | Escherichia coli TOP10 | 0.0143 |

For every record below, what is its shrunken log2 fold change?
1. RRIRDRPPRLPRPRPRPPKWPRP
2. RRIRNRPPRLPRPRPRPAQSPRP
3. RRIRQRPPRLPRPRPRPNLKPRP
4. RRIRLRPPRLPRPRPRPRAIPRP
5. RRIRARPPRLPRPRPRPGLPPRP
6. RRIRARPPRLPRPRPRPWWRPRP

output:
1: 0.27; 2: 0.0508; 3: -0.196; 4: 0.0282; 5: 0.709; 6: 0.0229

For every record below, what is its shrunken log2 fold change?
1. RRIRLRPPRLPRPRPRPRPNPRP
2. RRIRGRPPRLPRPRPRPIIAPRP

output:
0.348
0.571
